# merged literature set: IC50 with Serine/threonine-protein kinase mTOR (Rattus norvegicus, UniProt P42346)
Give bare numbers, in nM.

Example entries begin here.
• O=c1cc(N2CCOCC2)oc2c(-c3ccccc3)cccc12 = 2500
• CN1CCN(c2ccc(NC(=O)Nc3ccc(-c4nc(N5C[C@@H]6C[C@H]5CO6)nc(N5C[C@@H]6C[C@H]5CO6)n4)cc3)cc2)CC1 = 35
• C[C@@H]1COCCN1c1nc(-c2ccc(NC(=O)Nc3ccc(C(=O)N4CCN(C)CC4)cc3)cc2)nc(N2CCOC[C@H]2C)n1 = 1.7
• FC(F)c1nc2ccccc2n1-c1nc(N2CC3CCC(C2)O3)nc(N2CC3CCC(C2)O3)n1 = 44
• C[C@@H]1COCCN1c1nc(-c2ccc(NC(=O)Nc3ccc(N4CCN(C)CC4)nc3)cc2)nc(N2CCOC[C@H]2C)n1 = 1.7
• C[C@@H]1COCCN1c1nc(-c2ccc(NC(=O)Nc3ccc(C(=O)N(C)C)cc3)cc2)nc(N2CCOC[C@H]2C)n1 = 0.5

Please examine the following record next.
The compound `C[C@@H]1COCCN1c1nc(-c2ccc(NC(=O)Nc3ccc(OCCN(C)C)cc3)cc2)nc(N2CCOC[C@H]2C)n1` showed IC50 equal to 0.7
